Every entry's value here was drawn from paper PMC10914731.

- test details: in vitro
- measurement setup: human, Caco-2, Caco-2 permeability P (A-B)
*1 amine or outer side, *2 acyl side, *3 side chain or, on linkers, in order; H or OH if unused. Where a SMILES comes first, the peptide text is derived from it. [ ]: non-standard residue; d: D form. X1 = C#CCn1cc(C[C@H](N[*:1])C(=O)[*:2])c2ccccc21; NMeLeu(5-OH,4R) = CN[C@@H](C[C@@H](C)CO)C(=O)O; Phe(βR-OMe) = CO[C@H](c1ccccc1)[C@H](N)C(=O)O; NMeL = CN[C@@H](CC(C)C)C(=O)O
Each entry below carries its recorded Papp A→B.
The reply should be a number in ×10⁻⁶ cm/s, with the unit left off.

compound	endpoint name	value observed
CCCCCn1cc(C[C@@H]2NC(=O)[C@H](CC(C)C)N(C)C(=O)[C@H](C(C)C)NC(=O)[C@H]([C@H](OC)c3ccccc3)NC(=O)[C@H](C)NC(=O)[C@H](C[C@@H](C)CO)N(C)C(=O)[C@H](Cc3cn(C)c4ccccc34)N(C)C2=O)nn1 [Compound 25]	Papp A→B	0.9

Shift focus to the following entry.
Task: Which Papp A→B value is on record for C#CCn1cc(C[C@@H]2NC(=O)[C@H](C(C)C)NC(=O)[C@H](CC(C)C)N(C)C(=O)[C@H](C(C)C)NC(=O)[C@H]([C@H](OC)c3ccccc3)NC(=O)[C@H](C)NC(=O)[C@H](C[C@@H](C)CO)N(C)C2=O)c2ccccc21 [Compound 5] (cyclo(A[Phe(βR-OMe)]V[NMeL]V[X1][NMeLeu(5-OH,4R)])) ?
Result: 1.1

###

- System: Caco-2 monolayers
- test details: in vitro
- measurement setup: influence of Trp-Nα methylation on P(A-B); matched pair, listed under the methylated partner
*1 amine or outer side, *2 acyl side, *3 side chain or, on linkers, in order; H or OH if unused. Where a SMILES comes first, the peptide text is derived from it. [ ]: non-standard residue; d: D form. X5 = C=CCn1cc(C[C@@H](C(=O)[*:2])N(C)[*:1])c2ccccc21; NMeLeu(5-OH,4R) = CN[C@@H](C[C@@H](C)CO)C(=O)O; Phe(βR-OMe) = CO[C@H](c1ccccc1)[C@H](N)C(=O)O; NMeL = CN[C@@H](CC(C)C)C(=O)O
endpoint name: Permeability Correlation P (A-B)
Respond using a number only.

Please review the following examples before continuing.
molecule	endpoint name	value observed
C=CCn1cc(C[C@H]2C(=O)N(C)[C@@H](C[C@@H](C)CO)C(=O)N[C@@H](C)C(=O)N[C@@H]([C@H](OC)c3ccccc3)C(=O)N[C@@H](C(C)C)C(=O)N(C)[C@@H](CC(C)C)C(=O)N[C@@H](C(C)C)C(=O)N2C)c2ccccc21 [SI-60] (cyclo(A[Phe(βR-OMe)]V[NMeL]V[X5][NMeLeu(5-OH,4R)]))	Permeability Correlation P (A-B)	14.6
CO[C@H](c1ccccc1)[C@@H]1NC(=O)[C@H](C)NC(=O)[C@H](C[C@@H](C)CO)N(C)C(=O)[C@H](Cc2cn(C)c3ccccc23)N(C)C(=O)[C@H](Cc2cn(CCCCCn3cc(C[C@@H]4NC(=O)[C@H](CC(C)C)N(C)C(=O)[C@H](C(C)C)NC(=O)[C@H]([C@H](OC)c5ccccc5)NC(=O)[C@H](C)NC(=O)[C@H](C[C@@H](C)CO)N(C)C(=O)[C@H](Cc5cn(C)c6ccccc56)N(C)C4=O)nn3)nn2)NC(=O)[C@H](CC(C)C)N(C)C(=O)[C@H](C(C)C)NC1=O [Compound 22]	Permeability Correlation P (A-B)	0.7

Shift focus to the following entry.
Task: Which Permeability Correlation P (A-B) value is on record for CO[C@H](c1ccccc1)[C@@H]1NC(=O)[C@H](C)NC(=O)[C@H](C[C@@H](C)CO)N(C)C(=O)[C@H](Cc2cn(C)c3ccccc23)N(C)C(=O)[C@H](Cc2cn(CCOCCOCCn3cc(C[C@@H]4NC(=O)[C@H](CC(C)C)N(C)C(=O)[C@H](C(C)C)NC(=O)[C@H]([C@H](OC)c5ccccc5)NC(=O)[C@H](C)NC(=O)[C@H](C[C@@H](C)CO)N(C)C(=O)[C@H](Cc5cn(C)c6ccccc56)N(C)C4=O)nn3)nn2)NC(=O)[C@H](CC(C)C)N(C)C(=O)[C@H](C(C)C)NC1=O [Compound 21] ?
Result: 0.3
